- targetOrSystem: T1, human CLDN18.1 (human, UniProt P56856 1-261)
- T1 construct: also called claudin18.1
- measurementNotes: FACS, U2OS-CLDN18.1 cells, antibody at 200 nM
- Description: Based on the FACS method, the binding activity of anti-CLDN18.2 antibodies for the cell line U2OS-CLDN18.1 overexpressing CLDN18.1 (SEQ ID NO: 2) was analyzed. […] Cells were washed 3 times with pre-cooled PBS buffer and resuspended in 100 μL of PBS buffer, and then the fluorescence signals were detected using a flow cytometer (Sartorius, iQUE3). The nonspecific binding of the anti-CLDN18.2 antibodies for U2OS-CLDN18.1 cells was measured by mean fluorescence intensity (MFI) of staining. […]
parameterMeasured: MFI
Enter the number alone.

Answered examples (2):
IMAB362 (antibody, human IgG1, kappa, V domains shown, Positive control, prepared in-house; also called Claudiximab; TMAB362 [sic]) VH: QVQLQQPGAELVRPGASVKLSCKASGYTFTSYWINWVKQRPGQGLEWIGNIYPSDSYTNYNQKFKDKATLTVDKSSSTAYMQLSSPTSEDSAVYYCTRSWRGNSFDYWGQGTTLTVSS VL: DIVMTQSPSSLTVTAGEKVTMSCKSSQSLLNSGNQKNYLTWYQQKPGQPPKLLIYWASTRESGVPDRFTGSGSGTDFTLTISSVQAEDLAVYYCQNDYSYPFTFGSGTKLEIKR :: 6220
chimeric antibody xi22F12 (antibody, human IgG1, kappa, V domains shown, Mouse variable regions on human IgG1/kappa; defucosylated, expressed in FUT8-knockout CHO-S cells; also called chimeric 22F12) VH: QVQLKESGPGLVAPSQSLSITCTVSGFSLTSYGVYWVRQPPGKGLEWLGVIWAGGSTNYNSALMSRLSINKDNSKSQVFLKMNSLQTDDTAMYYCARDRGRLLSMDYWGQGTSVTVSS VL: DIVMTQSPSSLSVSAGEKVTMSCRSSQSLLNSGNQKNYLAWYQQKPGQPPKLLIYGASTRESGVPDRFTGSGSGTDFTLTIGSVQAEDLAVYYCQNVHFFPFTFGSGTKLEIKR :: 8940

Next, consider the following binder.
Using the record for chimeric antibody xi10D8 (antibody, human IgG1, kappa, V domains shown, Mouse variable regions on human IgG1/kappa; defucosylated, expressed in FUT8-knockout CHO-S cells; also called chimeric 10D8) VH: QIQLAQSGPELKKPGETVKVSCKASGYTFKNYGMNWVKQAPGKGLKWMGWININTGEPRYAEEFKGRIAFSLETSASTAYLLINNLKNEDTATYFCARYGYGNSFPYWGQGTLVTVSA VL: DIVMTQSPSSLTVTVGEKVTMSCKSSQSLLNSGNQRNYLTWYQQKPGQPPKLLIYWASTRESGVPDRFTGSGSGTAFTLTVSSVQAEDLAVYYCQNDYSYPLTFGAGTKLEMKR , report its MFI.
8030
